Measured concentration at 1.5 h by item
- assay-details: Plasma concentration in db/db mouse at 5 mg/kg, po after 90 mins
- Type: ADME, organism-based
- Parameters: dose 5 mg/kg, route oral
- measurement-parameters: read-out: Drug uptake
A complete answer gives the number followed by the unit.

# example entries with known answers
smiles-repr: CN(Cc1ccc(C(=O)NCCS(=O)(=O)O)cc1)c1ccc(OCc2c(-c3c(Cl)cccc3Cl)noc2C2CC2)nc1C(F)(F)F
concentration at 1.5 h: 12 ng/mL

smiles-repr: CC(C)c1onc(-c2c(Cl)cccc2Cl)c1COc1ccc(N(C)Cc2ccc(C(=O)O)cc2)c(C(F)(F)F)n1
concentration at 1.5 h: 267 ng/mL

# input for lookup
Assign concentration at 1.5 h to the following record: CN(Cc1ccc(C(=O)O)cc1)c1ccc(OCc2c(-c3c(Cl)cccc3Cl)noc2C2CC2)nc1C(F)(F)F
370 ng/mL

###

- tgt: UniProt P08235
- Sequence (P08235 whole entry, the tested form may be a part): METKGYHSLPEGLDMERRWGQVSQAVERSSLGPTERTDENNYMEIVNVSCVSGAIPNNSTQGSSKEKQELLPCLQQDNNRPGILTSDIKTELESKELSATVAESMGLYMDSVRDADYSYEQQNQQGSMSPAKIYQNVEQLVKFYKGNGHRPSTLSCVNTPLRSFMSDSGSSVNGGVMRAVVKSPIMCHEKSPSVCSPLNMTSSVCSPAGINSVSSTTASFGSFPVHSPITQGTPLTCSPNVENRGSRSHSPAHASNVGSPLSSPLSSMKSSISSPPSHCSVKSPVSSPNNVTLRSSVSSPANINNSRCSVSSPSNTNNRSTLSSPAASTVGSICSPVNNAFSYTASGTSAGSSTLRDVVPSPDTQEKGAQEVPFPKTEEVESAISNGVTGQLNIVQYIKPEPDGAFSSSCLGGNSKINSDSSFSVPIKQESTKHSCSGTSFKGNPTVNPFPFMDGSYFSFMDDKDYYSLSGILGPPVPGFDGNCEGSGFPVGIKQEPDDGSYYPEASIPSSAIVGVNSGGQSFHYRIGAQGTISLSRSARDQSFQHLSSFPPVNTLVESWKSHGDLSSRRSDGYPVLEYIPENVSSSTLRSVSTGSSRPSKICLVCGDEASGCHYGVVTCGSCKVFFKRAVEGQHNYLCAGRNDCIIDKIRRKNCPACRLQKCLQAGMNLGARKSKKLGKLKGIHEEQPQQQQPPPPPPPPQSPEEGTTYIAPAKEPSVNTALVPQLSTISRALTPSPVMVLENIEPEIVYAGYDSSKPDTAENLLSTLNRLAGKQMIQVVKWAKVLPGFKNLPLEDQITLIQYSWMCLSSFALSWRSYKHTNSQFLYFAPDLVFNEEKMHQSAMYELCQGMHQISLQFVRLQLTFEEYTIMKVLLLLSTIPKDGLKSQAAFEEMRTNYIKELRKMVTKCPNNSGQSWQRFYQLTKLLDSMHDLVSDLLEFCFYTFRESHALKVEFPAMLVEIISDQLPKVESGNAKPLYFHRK
- assay-details: Agonist activity at mineralocorticoid receptor-LBD expressed in HEK293 cells assessed as Gal4-DBD interaction by cellular mammalian one hybrid assay
- Format: functional, cell-based
pEC50: −log10 of the molar value.
observable: pEC50

Sample answers from the record:
smiles-repr: CN(Cc1cccc(C(=O)O)c1)c1ccc(OCc2c(-c3c(Cl)cccc3Cl)noc2C2CC2)nc1C(F)(F)F
meas-value: < 5.00

smiles-repr: CC(C)c1onc(-c2c(Cl)cccc2Cl)c1COc1ccc(N(C)Cc2ccc(C(=O)O)cc2)c(C(F)(F)F)n1
meas-value: < 5.00

# context switch: different compound, same pEC50
Complete the entry with pEC50 for CN(Cc1ccc(C(=O)O)cc1)c1ccc(OCc2c(-c3c(Cl)cccc3Cl)noc2C2CC2)nc1C(F)(F)F
< 5.00

###

- tgt: Bile acid receptor (Homo sapiens, UniProt Q96RI1)
- Sequence (Q96RI1 whole entry): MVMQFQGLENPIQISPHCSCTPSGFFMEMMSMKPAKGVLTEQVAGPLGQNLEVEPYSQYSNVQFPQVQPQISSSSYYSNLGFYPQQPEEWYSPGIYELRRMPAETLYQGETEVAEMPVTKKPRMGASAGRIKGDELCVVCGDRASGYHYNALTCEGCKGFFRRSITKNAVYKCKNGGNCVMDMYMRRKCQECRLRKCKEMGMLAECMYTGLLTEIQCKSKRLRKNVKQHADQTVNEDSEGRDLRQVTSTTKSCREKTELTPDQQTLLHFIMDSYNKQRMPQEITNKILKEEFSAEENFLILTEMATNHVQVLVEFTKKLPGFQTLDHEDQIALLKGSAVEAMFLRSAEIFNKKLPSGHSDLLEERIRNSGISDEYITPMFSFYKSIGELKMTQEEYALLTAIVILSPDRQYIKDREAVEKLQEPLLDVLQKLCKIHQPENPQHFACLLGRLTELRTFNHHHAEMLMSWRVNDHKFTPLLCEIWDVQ
- assay-details: Agonist activity at human GST-fused FXR LBD assessed as cofactor peptide interaction with receptor ligand binding domain by FRET assay
pEC50 values by entry
Answer as the number alone; pEC50 is minus log10 of concentration in mol/L.

smiles-repr: CC(C)c1onc(-c2c(Cl)cccc2Cl)c1COc1ccc(N(C)Cc2ccc(OCC(=O)O)cc2)c(C(F)(F)F)n1
tgt: Bile acid receptor (Homo sapiens, UniProt Q96RI1)
meas-value: 7.46
//
smiles-repr: Cc1cc(C(F)(F)F)cc(OCc2c(-c3c(Cl)cccc3Cl)noc2C(C)C)n1
tgt: Bile acid receptor (Homo sapiens, UniProt Q96RI1)
meas-value: 6.65
//
smiles-repr: CC(C)c1onc(-c2c(Cl)cccc2Cl)c1COc1ccc(N(C)Cc2ccc(CCC(=O)O)cc2)c(C(F)(F)F)n1
tgt: Bile acid receptor (Homo sapiens, UniProt Q96RI1)
meas-value: 7.77
//
smiles-repr: CCN(Cc1ccc(C(=O)O)cc1)c1ccc(OCc2c(-c3c(Cl)cccc3Cl)noc2C2CC2)nc1C(F)(F)F
tgt: Bile acid receptor (Homo sapiens, UniProt Q96RI1)
meas-value: 6.71
//
smiles-repr: CN(Cc1ccc(C(=O)NCCS(=O)(=O)O)cc1)c1ccc(OCc2c(-c3c(Cl)cccc3Cl)noc2C2CC2)nc1C(F)(F)F
tgt: Bile acid receptor (Homo sapiens, UniProt Q96RI1)
meas-value: 7.85
//
smiles-repr: Cc1nc(OCc2c(-c3c(Cl)cccc3Cl)noc2C(C)C)ccc1N(C)C(=O)c1ccc(C(=O)O)cc1
tgt: Bile acid receptor (Homo sapiens, UniProt Q96RI1)
meas-value: 6.44
//
smiles-repr: CC(C)c1onc(-c2c(Cl)cccc2Cl)c1COc1ccc(N(C)Cc2cccc(C(=O)NCCOP(=O)(O)O)c2)c(C(F)(F)F)n1
tgt: Bile acid receptor (Homo sapiens, UniProt Q96RI1)
meas-value: 7.44

We now examine a further compound.
Tell me measured pEC50 for CC(C)c1onc(-c2c(Cl)cccc2Cl)c1COc1ccc(N(C)Cc2ccc(OCCO)cc2)c(C(F)(F)F)n1 please.
6.79

All figures here come from ChEMBL document CHEMBL1208782.
